Reference for the values: patent US20250114345A1

Biological target: p300 (Homo sapiens, UniProt Q09472)
Construct: host or cells: A549 P300 HiBit cells
Sequence (Q09472 whole entry): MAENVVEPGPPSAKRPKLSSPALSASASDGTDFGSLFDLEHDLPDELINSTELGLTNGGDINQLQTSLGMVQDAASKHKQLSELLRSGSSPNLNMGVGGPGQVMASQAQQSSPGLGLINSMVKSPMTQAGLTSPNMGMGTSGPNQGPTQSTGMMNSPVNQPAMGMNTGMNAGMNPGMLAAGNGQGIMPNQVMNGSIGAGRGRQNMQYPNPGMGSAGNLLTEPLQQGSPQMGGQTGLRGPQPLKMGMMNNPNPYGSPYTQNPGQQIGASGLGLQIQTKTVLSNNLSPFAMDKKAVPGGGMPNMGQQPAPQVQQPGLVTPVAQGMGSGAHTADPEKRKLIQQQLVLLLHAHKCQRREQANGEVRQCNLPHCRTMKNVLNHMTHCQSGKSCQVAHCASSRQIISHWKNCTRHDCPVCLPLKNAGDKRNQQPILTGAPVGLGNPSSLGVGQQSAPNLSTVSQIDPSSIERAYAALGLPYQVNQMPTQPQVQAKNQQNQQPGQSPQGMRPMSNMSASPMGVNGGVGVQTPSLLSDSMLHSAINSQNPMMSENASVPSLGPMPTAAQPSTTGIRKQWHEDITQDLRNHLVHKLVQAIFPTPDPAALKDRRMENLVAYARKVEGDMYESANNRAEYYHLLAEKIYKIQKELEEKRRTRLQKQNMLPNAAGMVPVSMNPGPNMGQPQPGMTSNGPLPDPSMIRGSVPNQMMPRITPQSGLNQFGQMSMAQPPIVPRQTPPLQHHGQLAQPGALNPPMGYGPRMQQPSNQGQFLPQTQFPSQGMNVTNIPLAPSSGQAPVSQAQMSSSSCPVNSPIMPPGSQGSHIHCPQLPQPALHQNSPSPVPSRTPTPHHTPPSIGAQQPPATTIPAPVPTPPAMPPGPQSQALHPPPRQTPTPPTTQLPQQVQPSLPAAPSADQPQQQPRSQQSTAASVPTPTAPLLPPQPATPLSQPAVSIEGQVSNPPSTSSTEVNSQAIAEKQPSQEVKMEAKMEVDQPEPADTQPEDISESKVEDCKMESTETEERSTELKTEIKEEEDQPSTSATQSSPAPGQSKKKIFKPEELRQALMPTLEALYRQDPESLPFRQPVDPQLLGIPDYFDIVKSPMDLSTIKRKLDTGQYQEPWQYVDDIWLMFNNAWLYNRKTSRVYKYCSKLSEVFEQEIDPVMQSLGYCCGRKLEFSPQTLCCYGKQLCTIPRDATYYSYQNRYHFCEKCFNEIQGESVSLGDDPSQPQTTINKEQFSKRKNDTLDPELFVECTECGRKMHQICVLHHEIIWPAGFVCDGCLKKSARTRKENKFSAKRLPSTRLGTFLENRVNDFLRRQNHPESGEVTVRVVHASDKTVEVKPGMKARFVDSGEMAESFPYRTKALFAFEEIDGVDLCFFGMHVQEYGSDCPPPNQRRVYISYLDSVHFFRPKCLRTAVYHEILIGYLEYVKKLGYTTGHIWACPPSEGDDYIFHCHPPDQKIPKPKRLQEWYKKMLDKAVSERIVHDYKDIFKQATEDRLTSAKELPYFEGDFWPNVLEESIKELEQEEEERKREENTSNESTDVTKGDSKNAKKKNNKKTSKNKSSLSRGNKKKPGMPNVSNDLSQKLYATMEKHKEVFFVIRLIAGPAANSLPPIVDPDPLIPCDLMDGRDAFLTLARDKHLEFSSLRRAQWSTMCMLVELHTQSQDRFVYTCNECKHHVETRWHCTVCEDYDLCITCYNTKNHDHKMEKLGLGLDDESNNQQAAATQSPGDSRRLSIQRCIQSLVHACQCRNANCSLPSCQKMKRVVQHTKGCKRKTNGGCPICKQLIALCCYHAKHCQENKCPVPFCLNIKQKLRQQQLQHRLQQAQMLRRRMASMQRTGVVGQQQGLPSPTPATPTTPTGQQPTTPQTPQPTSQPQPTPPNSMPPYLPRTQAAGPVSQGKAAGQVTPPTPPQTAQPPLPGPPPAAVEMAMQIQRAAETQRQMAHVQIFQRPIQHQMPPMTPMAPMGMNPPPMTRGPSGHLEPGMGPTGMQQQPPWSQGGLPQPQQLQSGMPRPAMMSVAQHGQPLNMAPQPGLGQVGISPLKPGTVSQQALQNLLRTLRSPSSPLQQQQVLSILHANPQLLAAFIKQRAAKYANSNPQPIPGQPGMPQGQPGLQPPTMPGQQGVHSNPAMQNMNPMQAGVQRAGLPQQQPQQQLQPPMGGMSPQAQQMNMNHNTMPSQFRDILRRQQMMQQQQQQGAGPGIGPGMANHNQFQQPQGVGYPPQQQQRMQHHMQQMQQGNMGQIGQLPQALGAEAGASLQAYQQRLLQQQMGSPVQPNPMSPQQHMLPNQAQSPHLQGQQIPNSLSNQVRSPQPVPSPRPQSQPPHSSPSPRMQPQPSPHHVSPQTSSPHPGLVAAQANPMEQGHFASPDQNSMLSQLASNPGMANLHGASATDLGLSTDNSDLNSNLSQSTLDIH
Assay: P300 degradation, HiBit technology in A549 P300 HiBit cells (2 h)
Type: cell-based
Conditions: A549, A549 P300 HiBit cells, 2 hrs post treatment
Parameter Dmax: see the listing below.
quantityMeasured: Dmax

compound	assayedTarget	valueMeasured
Cc1cc(-c2cc3cccc(-c4cc(C)c5c(c4)n(C)c(=O)n5C)c3cn2)cnc1C(=O)NCC#Cc1ccc2occ(C3CCC(=O)NC3=O)c2c1 (stereo not drawn)	p300 (Homo sapiens, UniProt Q09472)	> 80%
Cc1cc(N2CCN(C)c3cc(-c4ccc(C(=O)NCC#Cc5cc6c(C7CCC(=O)NC7=O)cccc6o5)nc4)ncc32)c2cc(C)c(=O)n(C)c2c1 (stereo not drawn)	p300 (Homo sapiens, UniProt Q09472)	> 80%
Cc1cc(N2CCN(C)c3nc(-c4ccc(C(=O)NCC#Cc5cc6c(C7CCC(=O)NC7=O)nccc6o5)nc4)ncc32)cc2c1n(C)c(=O)n2C (stereo not drawn)	p300 (Homo sapiens, UniProt Q09472)	> 80%
CCc1cc(N(C)c2ccc(-c3cnc(C(=O)NCC#Cc4cccc(NC5CCC(=O)NC5=O)c4)c(C)c3)cc2)c2cc(C)c(=O)n(C)c2c1 (stereo not drawn)	p300 (Homo sapiens, UniProt Q09472)	> 80%
Cc1cc(-c2cccc3cc(-c4ccc(C(=O)NCC#Cc5ccc6occ(C7CCC(=O)NC7=O)c6c5)nc4)ncc23)cc2c1n(C)c(=O)n2C (stereo not drawn)	p300 (Homo sapiens, UniProt Q09472)	> 80%
CC(C)c1cc(C2=CC(C)(C)Oc3cc(-c4ccc(C(=O)NCC#Cc5ccc6occ(C7CCC(=O)NC7=O)c6c5)nc4)c(F)cc32)cc2c1n(C)c(=O)n2C (stereo not drawn)	p300 (Homo sapiens, UniProt Q09472)	> 80%
CC(C)c1cc(N2CCCc3cc(-c4ccc(C(=O)NCc5ccc(-c6ccn(C7CCC(=O)NC7=O)n6)cc5)nc4)c(C(F)F)cc32)cc2c1n(C)c(=O)n2C (stereo not drawn)	p300 (Homo sapiens, UniProt Q09472)	< 20%
CC(C)c1cc(-c2cccc3cc(-c4ccc(C(=O)NCC#Cc5ccc6oc(F)c(C7CCC(=O)NC7=O)c6c5)nc4)ncc23)cc2c1n(C)c(=O)n2C (stereo not drawn)	p300 (Homo sapiens, UniProt Q09472)	> 80%
CC(C)c1cc(-c2cccc3cc(-c4ccc(C(=O)NCC#Cc5ccc6occ(C7CCC(=O)NC7=O)c6c5)nc4)ncc23)cc2c1n(C)c(=O)n2C (stereo not drawn)	p300 (Homo sapiens, UniProt Q09472)	> 80%
CCc1cc2c(cc(C)c(=O)n2C)c(-c2cccc3cc(-c4ccc(C(=O)NCC#Cc5ccc6occ(C7CCC(=O)NC7=O)c6c5)nc4)ncc23)n1 (stereo not drawn)	p300 (Homo sapiens, UniProt Q09472)	60 to 79%
Cc1cc(-c2ccc(N(C)c3cc(C(C)C)c4c(c3)n(C)c(=O)n4C)cn2)cnc1C(=O)NCC#Cc1cccc(NC2CCC(=O)NC2=O)c1 (stereo not drawn)	p300 (Homo sapiens, UniProt Q09472)	> 80%
Cc1cc2c(N3CCCc4nc(-c5ccc(C(=O)NCC#Cc6ccc7occ(C8CCC(=O)NC8=O)c7c6)nc5)ncc43)nc(N(C)C)cc2n(C)c1=O (stereo not drawn)	p300 (Homo sapiens, UniProt Q09472)	> 80%

====

Target: CBP (Homo sapiens, UniProt Q92793)
Construct: host or cells: A549 CBP HiBit cells
Sequence (Q92793 whole entry): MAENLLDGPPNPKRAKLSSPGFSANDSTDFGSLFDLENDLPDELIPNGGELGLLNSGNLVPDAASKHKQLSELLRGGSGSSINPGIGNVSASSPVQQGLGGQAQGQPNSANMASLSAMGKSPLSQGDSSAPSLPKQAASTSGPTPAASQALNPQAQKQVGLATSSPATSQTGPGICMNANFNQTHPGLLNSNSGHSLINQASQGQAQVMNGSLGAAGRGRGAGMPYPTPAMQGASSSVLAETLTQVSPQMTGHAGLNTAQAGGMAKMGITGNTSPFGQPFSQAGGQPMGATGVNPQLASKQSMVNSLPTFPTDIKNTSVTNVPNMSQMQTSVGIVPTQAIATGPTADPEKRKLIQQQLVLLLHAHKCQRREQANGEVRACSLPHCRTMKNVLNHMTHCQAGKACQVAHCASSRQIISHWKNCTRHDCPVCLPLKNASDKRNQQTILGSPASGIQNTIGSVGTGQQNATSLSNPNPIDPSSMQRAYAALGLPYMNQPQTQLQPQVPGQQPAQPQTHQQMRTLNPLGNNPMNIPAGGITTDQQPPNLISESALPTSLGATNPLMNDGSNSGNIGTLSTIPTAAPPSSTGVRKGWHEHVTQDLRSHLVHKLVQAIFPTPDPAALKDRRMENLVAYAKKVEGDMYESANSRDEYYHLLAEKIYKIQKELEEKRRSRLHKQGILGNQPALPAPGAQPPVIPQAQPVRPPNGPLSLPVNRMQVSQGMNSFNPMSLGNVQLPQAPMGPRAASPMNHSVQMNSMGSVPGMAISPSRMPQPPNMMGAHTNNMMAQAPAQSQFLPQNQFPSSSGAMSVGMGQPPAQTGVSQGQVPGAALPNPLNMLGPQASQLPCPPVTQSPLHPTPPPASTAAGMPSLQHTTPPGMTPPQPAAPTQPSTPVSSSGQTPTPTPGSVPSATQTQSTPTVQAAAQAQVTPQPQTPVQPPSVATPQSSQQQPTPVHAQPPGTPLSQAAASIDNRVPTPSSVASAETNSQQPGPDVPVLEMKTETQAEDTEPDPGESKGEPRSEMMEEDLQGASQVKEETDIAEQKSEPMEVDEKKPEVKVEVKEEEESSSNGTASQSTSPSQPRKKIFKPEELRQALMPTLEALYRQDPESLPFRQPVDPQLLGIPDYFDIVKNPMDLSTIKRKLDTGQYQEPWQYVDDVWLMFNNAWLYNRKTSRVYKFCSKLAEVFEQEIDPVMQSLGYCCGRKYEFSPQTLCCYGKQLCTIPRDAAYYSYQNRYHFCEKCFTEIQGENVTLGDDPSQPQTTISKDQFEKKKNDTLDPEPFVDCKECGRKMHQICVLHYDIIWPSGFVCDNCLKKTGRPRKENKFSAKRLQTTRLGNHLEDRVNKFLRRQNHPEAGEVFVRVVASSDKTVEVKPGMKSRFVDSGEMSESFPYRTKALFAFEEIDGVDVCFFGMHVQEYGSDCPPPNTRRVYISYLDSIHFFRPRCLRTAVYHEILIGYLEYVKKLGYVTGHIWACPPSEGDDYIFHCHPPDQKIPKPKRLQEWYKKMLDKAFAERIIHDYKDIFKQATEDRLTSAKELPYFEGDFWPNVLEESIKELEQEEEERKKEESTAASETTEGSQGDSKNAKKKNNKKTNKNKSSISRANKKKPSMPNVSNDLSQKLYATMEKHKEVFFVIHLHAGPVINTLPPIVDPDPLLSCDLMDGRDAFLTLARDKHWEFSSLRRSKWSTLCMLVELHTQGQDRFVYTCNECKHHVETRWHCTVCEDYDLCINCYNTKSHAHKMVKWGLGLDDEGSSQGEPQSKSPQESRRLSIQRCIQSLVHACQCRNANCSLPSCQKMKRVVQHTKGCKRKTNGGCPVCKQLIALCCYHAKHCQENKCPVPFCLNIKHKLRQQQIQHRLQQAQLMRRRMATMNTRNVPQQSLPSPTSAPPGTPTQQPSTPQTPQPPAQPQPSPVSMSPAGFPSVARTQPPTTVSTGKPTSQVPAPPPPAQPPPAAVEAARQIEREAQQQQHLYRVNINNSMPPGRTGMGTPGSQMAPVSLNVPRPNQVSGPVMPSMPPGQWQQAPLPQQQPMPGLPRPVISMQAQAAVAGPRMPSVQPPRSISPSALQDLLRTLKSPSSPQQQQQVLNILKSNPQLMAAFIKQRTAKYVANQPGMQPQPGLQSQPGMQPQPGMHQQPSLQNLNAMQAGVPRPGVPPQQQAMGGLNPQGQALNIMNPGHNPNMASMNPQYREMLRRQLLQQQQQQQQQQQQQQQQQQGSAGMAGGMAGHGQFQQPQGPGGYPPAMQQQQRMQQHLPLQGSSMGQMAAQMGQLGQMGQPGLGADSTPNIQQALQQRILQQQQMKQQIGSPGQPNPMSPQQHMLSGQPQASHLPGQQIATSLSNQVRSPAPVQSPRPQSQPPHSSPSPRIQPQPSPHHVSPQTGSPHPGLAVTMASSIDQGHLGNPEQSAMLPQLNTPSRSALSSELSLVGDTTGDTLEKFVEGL
Assay: CBP degradation, HiBit technology in A549 CBP HiBit cells (24 h)
Assay type: cell-based
Conditions: 24 hrs post treatment
In this section, each of the molecules is paired with its reported Dmax.

molecule	assayedTarget	Dmax
Cc1cc(-c2cc3cccc(-c4cc5c(c(N6CC7CCC(C6)O7)n4)n(C)c(=O)n5C)c3cn2)cnc1C(=O)NCC#Cc1ccc2occ(C3CCC(=O)NC3=O)c2c1 (stereo not shown)	CBP (Homo sapiens, UniProt Q92793)	< 20%
Cc1cc2c(N3CCOc4nc(-c5ccc(C(=O)NCC#Cc6cc7c(C8CCC(=O)NC8=O)cccc7o6)nc5)ncc43)cc(C3CCOCC3)nc2n(C)c1=O (stereo not shown)	CBP (Homo sapiens, UniProt Q92793)	< 20%
Cn1c(=O)n(C)c2cc(-c3cccc4cc(-c5ccc(C(=O)NCC#Cc6ccc7cnn(C8CCC(=O)NC8=O)c7c6)nc5)ncc34)ccc21 (stereo not shown)	CBP (Homo sapiens, UniProt Q92793)	< 20%
Cc1cc2c(N3CCCc4nc(-c5ccc(C(=O)NCC#Cc6ccc7occ(C8CCC(=O)NC8=O)c7c6)nc5)ncc43)cc(C3CCOCC3)nc2n(C)c1=O (stereo not shown)	CBP (Homo sapiens, UniProt Q92793)	< 20%
Cc1cc(-c2ncc3c(n2)CCCN3c2nc(N3CCOCC3)cc3c2cc(C)c(=O)n3C)cnc1C(=O)NCC#Cc1ccc2occ(C3CCC(=O)NC3=O)c2c1 (stereo not shown)	CBP (Homo sapiens, UniProt Q92793)	< 20%
CC(C)c1cc(-c2cccc3cc(-c4ccc(C(=O)NCC#Cc5ccc6c(c5)c(C5CCC(=O)NC5=O)nn6C)nc4)ncc23)cc2c1n(C)c(=O)n2C (stereo not shown)	CBP (Homo sapiens, UniProt Q92793)	> 80%
Cc1cc(-c2ncc3c(n2)OCCN3c2ccc3c(c2)n(C)c(=O)n3C)cnc1C(=O)NCC#Cc1cc2c(C3CCC(=O)NC3=O)cccc2o1 (stereo not shown)	CBP (Homo sapiens, UniProt Q92793)	< 20%
Cc1cc2c(-c3cn(C)c(=O)c4cc(-c5ccc(C(=O)NCC#Cc6cc7c(C8CCC(=O)NC8=O)cccc7o6)nc5)ncc34)nc(N3CCOCC3)cc2n(C)c1=O (stereo not shown)	CBP (Homo sapiens, UniProt Q92793)	< 20%
CC(C)c1cc(-c2cccc3cc(-c4ccc(C(=O)NCC#Cc5ccc6[nH]nc(C7CCC(=O)NC7=O)c6c5)nc4)ncc23)cc2c1n(C)c(=O)n2C (stereo not shown)	CBP (Homo sapiens, UniProt Q92793)	60 to 79%
CC(C)c1cc(-c2cccc3cc(-c4ccc(C(=O)NCC#Cc5cc6c(C7CCC(=O)NC7=O)nccc6s5)nc4)ncc23)cc2c1n(C)c(=O)n2C (stereo not shown)	CBP (Homo sapiens, UniProt Q92793)	60 to 79%
CCn1c(=O)n(C)c2c(N3CCOCC3)nc(-c3cccc4cc(-c5ccc(C(=O)NCC#Cc6cc7c(C8CCC(=O)NC8=O)cccc7o6)nc5)ncc34)cc21 (stereo not shown)	CBP (Homo sapiens, UniProt Q92793)	< 20%
CCn1c(=O)n(C)c2c(N3CCOCC3)nc(-c3cccc4cc(-c5ccc(C(=O)NCC#Cc6ccc7occ(C8CCC(=O)NC8=O)c7c6)nc5)ncc34)cc21 (stereo not shown)	CBP (Homo sapiens, UniProt Q92793)	< 20%
Cn1c(=O)n(C)c2c(N3CC4CCC(C3)O4)nc(-c3cccc4cc(-c5ccc(C(=O)NCC#Cc6ccc7occ(C8CCC(=O)NC8=O)c7c6)nc5)ncc34)cc21 (stereo not shown)	CBP (Homo sapiens, UniProt Q92793)	< 20%
Cc1cc2c(N3CCCc4nc(-c5ccc(C(=O)NCC#Cc6ccc7occ(C8CCC(=O)NC8=O)c7c6)nc5)ncc43)cc(Cl)cc2n(C)c1=O (stereo not shown)	CBP (Homo sapiens, UniProt Q92793)	< 20%
CC(C)c1cc(-c2cccc3cc(-c4ccc(C(=O)NCC#Cc5ccc6occ(C78CC(C7)C(=O)NC8=O)c6c5)nc4)ncc23)cc2c1n(C)c(=O)n2C	CBP (Homo sapiens, UniProt Q92793)	< 20%
Cc1cc(-c2cc3cccc(-c4cc(C(C)C)c5c(c4)n(C)c(=O)n5C)c3cn2)cnc1C(=O)NCC#Cc1cccc(NC23CC(C2)C(=O)NC3=O)c1	CBP (Homo sapiens, UniProt Q92793)	< 20%
Cc1cc2c(-c3cccc4cc(-c5ccc(C(=O)NCC#Cc6ccc7occ(C8CCC(=O)NC8=O)c7c6)nc5)ncc34)nc(C(C)C)cc2n(C)c1=O (stereo not shown)	CBP (Homo sapiens, UniProt Q92793)	< 20%
CC(C)c1cc(-c2cccc3cc(-c4ccc(C(=O)NCC#Cc5ccc6ccnc(C7CCC(=O)NC7=O)c6c5)nc4)ncc23)cc2c1n(C)c(=O)n2C (stereo not shown)	CBP (Homo sapiens, UniProt Q92793)	< 20%
Cn1c(=O)n(C)c2cc(N3CCOc4nc(-c5ccc(C(=O)NCC#Cc6ccc7occ(C89CC(C8)C(=O)NC9=O)c7c6)nc5)ncc43)ccc21	CBP (Homo sapiens, UniProt Q92793)	< 20%
CC(C)c1cc(-c2cccc3cc(-c4ccc(C(=O)NCC#Cc5ccc6oc(F)c(C7CCC(=O)NC7=O)c6c5)nc4)ncc23)cc2c1n(C)c(=O)n2C (stereo not shown)	CBP (Homo sapiens, UniProt Q92793)	40 to 59%
Cn1c(=O)n(C)c2ncc(-c3cccc4cc(-c5ccc(C(=O)NCC#Cc6cc7c(C8CCC(=O)NC8=O)cccc7o6)nc5)ncc34)cc21 (stereo not shown)	CBP (Homo sapiens, UniProt Q92793)	< 20%
Cn1c(=O)n(C)c2c(N3CCC(O)CC3)nc(-c3cccc4cc(-c5ccc(C(=O)NCC#Cc6ccc7occ(C8CCC(=O)NC8=O)c7c6)nc5)ncc34)cc21 (stereo not shown)	CBP (Homo sapiens, UniProt Q92793)	< 20%
